// data source = patent US20210139581A1

target: human CD33 on primary human monocyte-derived dendritic cells (human, UniProt P20138 18-364); assay: cell-based or functional assay
Sequence (P20138 18-364): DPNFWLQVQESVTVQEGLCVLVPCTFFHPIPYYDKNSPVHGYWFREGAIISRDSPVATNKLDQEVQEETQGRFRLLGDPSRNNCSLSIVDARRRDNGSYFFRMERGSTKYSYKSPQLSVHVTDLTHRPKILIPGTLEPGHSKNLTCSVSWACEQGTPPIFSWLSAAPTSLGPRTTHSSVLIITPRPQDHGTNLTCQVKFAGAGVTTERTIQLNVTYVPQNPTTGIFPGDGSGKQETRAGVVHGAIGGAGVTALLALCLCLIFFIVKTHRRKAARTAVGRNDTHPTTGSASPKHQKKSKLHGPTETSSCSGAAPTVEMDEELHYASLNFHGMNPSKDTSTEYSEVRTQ
// returns Not fulfilled unless Receptor downregulation (EC50) is strictly below 30 pM, in which case Fulfilled

- Binder: "AB-64.5 (antibody, V domains shown) VH: QVQLVQSGAEVKKPGASVKISCKASGYTFTDYNYHWVRQAPGQGLEWIGFIYPSNGITGYAQKFFGRATLTVDNSTSTAYMELSSLRSEDTAVYYCARSDVDYFDYWGQGTLLTVSS VL: DIVLTQSPDSLAVSLGERATINCRASQSVGTSTYSYMHWYQQKPGQPPKLLIKYASNLESGVPDRFSGSGSGTDFTLTISSLQAEDVAVYYCQHSWEIPLTFGQGTKLEIK"
  Cat: "Fulfilled"
- Binder: "AB-64.1 (antibody, V domains shown) VH: QVQLVQSGAEVKKPGASVKISCKASGYTFTDYNLHWVRQAPGQGLEWIGFIYPSNGITGYAQKFQGRATLTVDNSTSTAYMELSSLRSEDTAVYYCARSDVDYFDYWGQGTLLTVSS VL: DIVLTQSPDSLAVSLGERATINCRASQSVSTSTYSYMHWYQQKPGQPPKLLIKYASNLESGVPDRFSGSGSGTDFTLTISSLQAEDVAVYYCQHSWEIPLTFGQGTKLEIK"
  Cat: "Fulfilled"
- Binder: "AB-64.2 (antibody, V domains shown) VH: QVQLVQSGAEVKKPGASVKISCKASGYTFTDYNLHWVRQAPGQGLEWIGFIYPSNGITGYAQKFQGRATLTVDNSTSTAYMELSSLRSEDTAVYYCARSTVDYFDYWGQGTLLTVSS VL: DIVLTQSPDSLAVSLGERATINCRVSQDVSTSTYSYMHWYQQKPGQPPKLLIKYASNLESGVPDRFSGSGSGTDFTLTISSLQAEDVAVYYCQHSWEIPLTFGQGTKLEIK"
  Cat: "Not fulfilled"
- Binder: "AB-64.4 (antibody, V domains shown) VH: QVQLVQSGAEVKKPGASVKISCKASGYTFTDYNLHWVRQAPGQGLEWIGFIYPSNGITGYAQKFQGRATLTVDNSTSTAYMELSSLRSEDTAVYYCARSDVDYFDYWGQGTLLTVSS VL: DIVLTQSPDSLAVSLGERATINCRASQDVSTSTYSYMHWYQQKPGQPPKLLIKYASYLESGVPDRFSGSGSGTDFTLTISSLQAEDVAVYYCEHSWEIPLTFGQGTKLEIK"
  Cat: "Fulfilled"
- Binder: "AB-64.3 (antibody, V domains shown) VH: QVQLVQSGAEVKKPGASVKISCKASGYTFTDYNLHWVRQAPGQGLEWIGFIYPSNGITGYAEKFEGRATLTVDNSTSTAYMELSSLRSEDTAVYYCARSFVDYFDYWGQGTLLTVSS VL: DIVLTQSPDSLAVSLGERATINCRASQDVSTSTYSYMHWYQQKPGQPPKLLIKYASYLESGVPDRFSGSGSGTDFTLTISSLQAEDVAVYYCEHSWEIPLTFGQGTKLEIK"
  Cat: "Fulfilled"
